tested on: HT-29; assay: Cytotoxicity against human HT-29 cells at 80 ug/ml after 24 hrs by MTT assay; type: functional
# Activity per entry
Note: state the figure and append the unit.

Some solved entries appear below for comparison.
| Item Smiles | Activity |
| --- | --- |
| Cn1c(-c2ccc(NC(=O)CCl)cc2)nc(-c2ccccc2)c1-c1ccccc1 | 76.1% |
| Cn1c(-c2ccc(NC(=O)CSC3=NCCS3)cc2)nc(-c2ccccc2)c1-c1ccccc1 | 75.2% |

Prompt: Would you mind telling me what Activity value was observed for Cn1c(-c2ccc(NC(=O)CN3CCN(Cc4ccccc4)CC3)cc2)nc(-c2ccccc2)c1-c1ccccc1 ?
Completion: 54.5%

Prompt: Next molecule up: Cn1cnnc1SCC(=O)Nc1ccc(-c2nc(-c3ccccc3)c(-c3ccccc3)n2C)cc1
Completion: 88%

Prompt: # repeat for Cn1c(-c2ccc(NC(=O)CSc3nc4ccccc4s3)cc2)nc(-c2ccccc2)c1-c1ccccc1
Completion: 82.7%

---

test system: MCF7; assay: Cytotoxicity against human MCF7 cells after 24 hrs by MTT assay; assay type: functional, cell-based; conditions: MCF7, 24 h
Test Readout: IC50 (µg/mL)
Please state the figure in µg/mL; there is no need to write the unit.

Field: example entries. Status: answers known.
| Item Smiles | IC50 (µg/mL) |
| --- | --- |
| Cn1c(-c2ccc(NC(=O)CCl)cc2)nc(-c2ccccc2)c1-c1ccccc1 | 42.6 |
| Cn1ccnc1SCC(=O)Nc1ccc(-c2nc(-c3ccccc3)c(-c3ccccc3)n2C)cc1 | 46.5 |
| Cn1nnnc1SCC(=O)Nc1ccc(-c2nc(-c3ccccc3)c(-c3ccccc3)n2C)cc1 | 4.5 |
| Cn1c(-c2ccc(NC(=O)CN3CCN(c4ccccc4)CC3)cc2)nc(-c2ccccc2)c1-c1ccccc1 | 10.7 |

Prompt: Request the reported IC50 associated with Cn1c(-c2ccc(NC(=O)CSC3=NCCS3)cc2)nc(-c2ccccc2)c1-c1ccccc1
Completion: 26.7

---

test system: HT-29; test: Cytotoxicity against human HT-29 cells at 16 ug/ml after 24 hrs by MTT assay; type: functional
Listed here: items and their measured Activity.
Write it as a number; the unit % goes unstated.

Recorded results for 3 compounds are shown here.
| Item Smiles | Unit Name | Activity |
| --- | --- | --- |
| Cn1c(-c2ccc(NC(=O)CSc3nc4ccccc4o3)cc2)nc(-c2ccccc2)c1-c1ccccc1 | % | 56.2 |
| Cn1nnnc1SCC(=O)Nc1ccc(-c2nc(-c3ccccc3)c(-c3ccccc3)n2C)cc1 | % | 72.5 |
| Cn1c(-c2ccc(NC(=O)CN3CCN(c4ccccc4)CC3)cc2)nc(-c2ccccc2)c1-c1ccccc1 | % | 55.4 |

Prompt: Sample Cn1c(-c2ccc(NC(=O)CN3CCN(Cc4ccc(Cl)cc4)CC3)cc2)nc(-c2ccccc2)c1-c1ccccc1 — what was its Activity?
Completion: 52.9

---

test system: HT-29; assay: Cytotoxicity against human HT-29 cells at 80 ug/ml after 24 hrs by MTT assay; assay type: functional
Quick rule for you: Activity under 70% gets yes, anything else gets no.

| Item Smiles | Category |
| --- | --- |
| CCN1CCN(CC(=O)Nc2ccc(-c3nc(-c4ccccc4)c(-c4ccccc4)n3C)cc2)CC1 | yes |
| CN1CCN(CC(=O)Nc2ccc(-c3nc(-c4ccccc4)c(-c4ccccc4)n3C)cc2)CC1 | yes |
| Cn1c(-c2ccc(NC(=O)CN3CCN(Cc4ccc(Cl)cc4)CC3)cc2)nc(-c2ccccc2)c1-c1ccccc1 | yes |
| Cn1c(-c2ccc(NC(=O)CSc3nc4ccccc4o3)cc2)nc(-c2ccccc2)c1-c1ccccc1 | no |
| CN(C)CCN1CCN(CC(=O)Nc2ccc(-c3nc(-c4ccccc4)c(-c4ccccc4)n3C)cc2)CC1 | yes |

Prompt: Record Cc1nnc(SCC(=O)Nc2ccc(-c3nc(-c4ccccc4)c(-c4ccccc4)n3C)cc2)s1 : is its Activity strictly below 70%?
Completion: no

Prompt: Would you mind doing Cn1nnnc1SCC(=O)Nc1ccc(-c2nc(-c3ccccc3)c(-c3ccccc3)n2C)cc1 as well?
Completion: no

Prompt: Quick one: Cn1c(-c2ccc(NC(=O)CN3CCN(c4ccccc4)CC3)cc2)nc(-c2ccccc2)c1-c1ccccc1
Completion: yes

---

test system: HT-29; assay: Induction of apoptosis in human HT-29 cells assessed as DNA fragmentation after 24 hrs by gel electrophoresis
Activity calls are given as the source filed them. The calls are words filed in the database; no cut-off is given here.
Can you answer with just one of these options? TRUE = active, FALSE = inactive

Field: example entries. Status: answers known.
| Item Smiles | Category |
| --- | --- |
| Cn1c(-c2ccc(NC(=O)CSc3nc4ccccc4o3)cc2)nc(-c2ccccc2)c1-c1ccccc1 | FALSE |
| Cc1nnc(SCC(=O)Nc2ccc(-c3nc(-c4ccccc4)c(-c4ccccc4)n3C)cc2)s1 | TRUE |

Prompt: How did this test come out for Cn1cnnc1SCC(=O)Nc1ccc(-c2nc(-c3ccccc3)c(-c3ccccc3)n2C)cc1 ?
Completion: TRUE

Prompt: And Cn1nnnc1SCC(=O)Nc1ccc(-c2nc(-c3ccccc3)c(-c3ccccc3)n2C)cc1 ?
Completion: TRUE

---

We begin with a simple list: items and their reported IC50.
system: MCF7; experiment: Cytotoxicity against human MCF7 cells after 24 hrs by MTT assay; assay type: functional, cell-based; settings: MCF7, 24 h
Express your answer in µg/mL, writing the number without its unit.

// worked examples, IC50 included
| Item Smiles | IC50 / µg/mL |
| --- | --- |
| CN1CCN(CC(=O)Nc2ccc(-c3nc(-c4ccccc4)c(-c4ccccc4)n3C)cc2)CC1 | 76.5 |
| Cn1cnnc1SCC(=O)Nc1ccc(-c2nc(-c3ccccc3)c(-c3ccccc3)n2C)cc1 | 3.2 |
| Cn1c(-c2ccc(NC(=O)CN3CCN(Cc4ccc(Cl)cc4)CC3)cc2)nc(-c2ccccc2)c1-c1ccccc1 | 21 |
| Cn1c(-c2ccc(NC(=O)CSc3nc4ccccc4o3)cc2)nc(-c2ccccc2)c1-c1ccccc1 | 11.2 |

Prompt: Reported IC50, compound Cn1c(-c2ccc(NC(=O)CSc3nc4ccccc4s3)cc2)nc(-c2ccccc2)c1-c1ccccc1 : ____
Completion: 15.8

Prompt: Follow-up entry: Cc1nnc(SCC(=O)Nc2ccc(-c3nc(-c4ccccc4)c(-c4ccccc4)n3C)cc2)s1
Completion: 3.2

---

system: HT-29; test: Cytotoxicity against human HT-29 cells at 16 ug/ml after 24 hrs by MTT assay; type: functional
Test Readout: Activity (%)
Give the number; % is assumed, so skip it.

Reference set (6 entries):
| Item Smiles | Unit Name | Activity |
| --- | --- | --- |
| CN1CCN(CC(=O)Nc2ccc(-c3nc(-c4ccccc4)c(-c4ccccc4)n3C)cc2)CC1 | % | 33.7 |
| Cn1c(-c2ccc(NC(=O)CSC3=NCCS3)cc2)nc(-c2ccccc2)c1-c1ccccc1 | % | 43.3 |
| Cn1c(-c2ccc(NC(=O)CSc3nc4ccccc4s3)cc2)nc(-c2ccccc2)c1-c1ccccc1 | % | 47.2 |
| Cn1c(-c2ccc(NC(=O)CCl)cc2)nc(-c2ccccc2)c1-c1ccccc1 | % | 23.7 |
| CCN1CCN(CC(=O)Nc2ccc(-c3nc(-c4ccccc4)c(-c4ccccc4)n3C)cc2)CC1 | % | 28.4 |
| Cn1cnnc1SCC(=O)Nc1ccc(-c2nc(-c3ccccc3)c(-c3ccccc3)n2C)cc1 | % | 59.1 |

Prompt: Quick one: Activity of CN(C)CCN1CCN(CC(=O)Nc2ccc(-c3nc(-c4ccccc4)c(-c4ccccc4)n3C)cc2)CC1 ?
Completion: 28.2

Prompt: Cc1nnc(SCC(=O)Nc2ccc(-c3nc(-c4ccccc4)c(-c4ccccc4)n3C)cc2)s1 , same question.
Completion: 83.3

Prompt: How about Cn1ccnc1SCC(=O)Nc1ccc(-c2nc(-c3ccccc3)c(-c3ccccc3)n2C)cc1 ?
Completion: 36.5

Prompt: What would you report for Cn1c(-c2ccc(NC(=O)CN3CCN(Cc4ccccc4)CC3)cc2)nc(-c2ccccc2)c1-c1ccccc1 ?
Completion: 37

The measured values listed here are drawn from ChEMBL document CHEMBL1208663.
